Reported AUC values for the following molecules.
Experiment: In vivo pharmacokinetic study on cynomolgus monkeys, intravenous
Conditions: cynomolgus monkey, plasma, iv, 1 mg/kg, animal MK-301; 1 mg/Kg IV, monkey
Form entry: value (ng·h/mL) — number only.

[2H]C([2H])([2H])C(O)(C([2H])([2H])[2H])C([2H])([2H])Nc1nc(Nc2ccnc(C(F)(F)F)c2)nc(-c2cccc(C(F)(F)F)n2)n1 [D8-Enasidenib]    10300

# evaluate next
The molecule listed as CC(C)(O)CNc1nc(Nc2ccnc(C(F)(F)F)c2)nc(-c2cccc(C(F)(F)F)n2)n1 [Enasidenib, enasidenib, reference compound] has a reported AUC of 4290
